Tested on: Newcastle disease virus
assay info: Antiviral activity against Newcastle disease virus Miyadera infected in CEF assessed as suppression of <= 1% hemagglutinating activity by tube assay
Assay type: functional
run conditions: avian paramyxovirus 1, Miyadera
// log10(MIC) lookup, one value per entry
In plain terms, each number is the log10 of measured MIC in µM.

# example entries with known answers
> print(dat)
                                   molecule  measured.number
1  OCC12CCCC3CC(CCC31)C2 (stereo not drawn)             2.64
2  O=C(NC1CCCCC1)C12CCCC3CC(CCC31)C2 (stereo not drawn)             3.35
3  CC(=O)NC12CCCC3CC(CCC31)C2 (stereo not drawn)             2.88
4  O[C@@H]1C2CCCC3C[C@@H]1CC[C@@H]32 (relative stereo)             2.88
5  Cl.NCC12CCCC3CC(CCC31)C2 (stereo not drawn)             1.65
6  CCCCNC(=O)C12CCCC3CC(CCC31)C2 (stereo not drawn)             2.80

[Q] Give the measured log10(MIC) of O[C@H]1C2CCCC3C[C@H]1CC[C@H]32 (relative stereo) .
[A] 2.95

[Q] // returns reported log10(MIC) for input N#CC12CCCC3CC(CCC31)C2 (stereo not drawn)
[A] 2.76

[Q] Quick check: log10(MIC) of "C1CC2CC3CCC2C(C1)C3" ?
[A] 2.83

[Q] Name the reported log10(MIC) value associated with the molecule O=C(NC12CC3CC(CC(C3)C1)C2)C12CCCC3CC(CCC31)C2 (stereo not drawn)
[A] 3.88

[Q] What value of measured log10(MIC) is listed for O=C(O)C12CCCC3CC(CCC31)C2 (stereo not drawn) ?
[A] 4.00

[Q] Could you share which log10(MIC) value was measured for NC(=O)C12CCCC3CC(CCC31)C2 (stereo not drawn) ?
[A] 3.41

[Q] Report log10(MIC) for Cl.NC12CCCC3CC(CCC31)C2 (stereo not drawn) please.
[A] 1.40

----------
Readings of MCC at 24 h for the listed molecules
assay info: Cytotoxicity against CEF after 24 hrs by microscopic analysis
Design: species or system Gallus gallus
run conditions: chicken, CEF cells
Give your result in µM as a bare value.

See these solved cases before continuing.
> print(dat)
                                   molecule  experimental.readout  result.unit  measured.number
1  OC12CCCC3CC(CCC31)C2 (centres undefined)           MCC at 24 h           µM             6000
2  O[C@H]1C2CCCC3C[C@H]1CC[C@H]32 (relative stereo)           MCC at 24 h           µM             1800
3                       C1CC2CC3CCC2C(C1)C3           MCC at 24 h           µM              670
4  OCC12CCCC3CC(CCC31)C2 (centres undefined)           MCC at 24 h           µM              870
5  Cl.NCC12CCCC3CC(CCC31)C2 (centres undefined)           MCC at 24 h           µM               90

[Q] If you can, please state the reported MCC at 24 h value of CNC(=O)C12CCCC3CC(CCC31)C2 (centres undefined) .
[A] 750

[Q] Fill blank: measured MCC at 24 h of the molecule O=C1C2CCC3C(CCCC13)C2 (centres undefined) is ____.
[A] 2400

[Q] Which MCC at 24 h value is on record for O=C(NC1CCCCC1)C12CCCC3CC(CCC31)C2 (centres undefined) ?
[A] 2250

----------
assay info: Cytotoxicity against CEF after 24 hrs by microscopic analysis
Parameters: species or system Gallus gallus
run conditions: chicken, CEF cells
Binary call on MCC at 24 h with cut-off 2000 µM: strictly below means T, and equality or higher means F.

Sample answers from the record:
> print(dat)
                                   compound  label.class
1  O=C(O)C12CCCC3CC(CCC31)C2 (stereo unspecified)            F
2  COC(=O)C12CCCC3CC(CCC31)C2 (stereo unspecified)            T
3  NC(=O)C12CCCC3CC(CCC31)C2 (stereo unspecified)            F

[Q] Lab log: compare recorded MCC at 24 h with 2000 µM; is it strictly lower for CCCCNC(=O)C12CCCC3CC(CCC31)C2 (stereo unspecified) ?
[A] T

----------
assay info: Cytotoxicity against CEF after 24 hrs by microscopic analysis
Design: species or system Gallus gallus
run conditions: chicken, CEF cells
Counter-ions that a name gives are not always drawn.
Reported MCC at 24 h values for a set of molecules
Give the value in µM but do not write µM after it.

See these solved cases before continuing.
> print(dat)
                                   molecule  experimental.readout  measured.number
1  Cl.NC12CCCC3CC(CCC31)C2 (configuration not stated)           MCC at 24 h              200
2  CCCCCCCCOC(=O)C12CCCC3CC(CCC31)C2 (configuration not stated)           MCC at 24 h              490
3  CC(=O)NC12CCCC3CC(CCC31)C2 (configuration not stated)           MCC at 24 h             3000
4  N#CC12CCCC3CC(CCC31)C2 (configuration not stated)           MCC at 24 h              850
5  O[C@@H]1C2CCCC3C[C@@H]1CC[C@@H]32 (relative stereo)           MCC at 24 h              750

[Q] # get_value(readout='MCC at 24 h', item= O=C(NC12CC3CC(CC(C3)C1)C2)C12CCCC3CC(CCC31)C2 (configuration not stated) )
[A] 2000

[Q] Which MCC at 24 h is listed for NC12CC3CC(CC(C3)C1)C2 [AMANTADINE HYDROCHLORIDE] ?
[A] 1300

Data provenance is ChEMBL document CHEMBL3271944.
